test system: K. pneumoniae No. 42*; assay: in vitro antibacterial activity, agar plate dilution method; assay type: cell-based; conditions: Klebsiella pneumoniae, 16 h
Recorded MIC by entry
Give just the numeric value; µg/mL need not be written.

Worked set:
C=C(O/N=C(\C(=O)N[C@@H]1C(=O)N2C(C(=O)O)=C(COC(C)=O)CS[C@H]12)c1csc(N)n1)C(=O)O; 0.2
CO/N=C(\C(=O)N[C@@H]1C(=O)N2C(C(=O)O)=C(COC(C)=O)CS[C@H]12)c1csc(N)n1 [Cefotaxime, reference compound]; 0.05
C=C(O/N=C(\C(=O)N[C@@H]1C(=O)N2C(C(=O)O)=C(CSc3nnnn3C)CS[C@H]12)c1csc(N)n1)C(=O)O; 0.2
C=C(O/N=C(\C(=O)N[C@@H]1C(=O)N2C(C(=O)[O-])=C(C[n+]3cccc(NC=O)c3)CS[C@H]12)c1csc(N)n1)C(=O)O; 0.05
C=C(O/N=C(\C(=O)N[C@@H]1C(=O)N2C(C(=O)O)=C(CSc3nnc(C)s3)CS[C@H]12)c1csc(N)n1)C(=O)O; 0.39

Now look at this entry.
Query string: Param item = `C=C(O/N=C(\C(=O)N[C@@H]1C(=O)N2C(C(=O)[O-])=C(C[n+]3cccc(C(=O)O)c3)CS[C@H]12)c1csc(N)n1)C(=O)O` ; retrieve measured MIC.
Result string: 0.39
